Answer each item with its documented viability, T/C.
Tested on: 598228-144-R-J1-PDC complex spheroids, viability;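 also: spheroids exposed to compounds for seven days before readout; 100% = DMSO vehicle control wells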
PROTOCOL_DESCRIPTION: Anticancer human tumor 598228-144-R-J1-PDC patient-derived serous endometrial adenocarcinoma cell line growth inhibition [CLK]
EXPERIMENTAL_CONTEXT: second compound 1 µM; first compound 3.16 µM; hits give low values

Known results for molecules:
# MOLECULE, viability, T/C
records = [
    ("Nc1ccn(C2OC(CO)C(O)C2(F)F)c(=O)n1 (centres undefined) + CNC(=O)c1ccc(Nc2nc(OC3CCCC3)c3c(-c4ccc5nc(C)oc5c4)c[nH]c3n2)c(OC)c1", "36.4%"),
    ("C=CC(=O)N1CCN(c2nc(=O)n(-c3c(C)ccnc3C(C)C)c3nc(-c4c(O)cccc4F)c(F)cc23)C(C)C1 (centres undefined) + CN1CCN(c2cc(C(=O)Nc3cc4cc(-c5cnn(C)c5)ccc4cn3)ccn2)CC1", "2.38%"),
    ("O=C(c1cc(Cc2n[nH]c(=O)c3ccccc23)ccc1F)N1CCN(C(=O)C2CC2)CC1 + CN1CCN(c2cc(C(=O)Nc3cc4cc(-c5cnn(C)c5)ccc4cn3)ccn2)CC1", "2.8%"),
    ("Nc1ccccc1NC(=O)c1ccc(CNC(=O)OCc2cccnc2)cc1 + CNC(=O)c1ccc(Nc2nc(OC3CCCC3)c3c(-c4ccc5nc(C)oc5c4)c[nH]c3n2)c(OC)c1", "45.6%"),
    ("COc1cccc2c1C(=O)c1c(O)c3c(c(O)c1C2=O)CC(O)(C(=O)CO)CC3OC1CC(N)C(O)C(C)O1 (centres undefined) + CN1CCN(c2cc(C(=O)Nc3cc4cc(-c5cnn(C)c5)ccc4cn3)ccn2)CC1", "0.96%"),
]

# return viability, T/C for each item in the list
1. C#Cc1c(F)ccc2cc(O)cc(-c3ncc4c(N5CC6CCC(C5)N6)nc(OCC56CCCN5CC(F)C6)nc4c3F)c12 (centres undefined) + CN1CCN(c2cc(C(=O)Nc3cc4cc(-c5cnn(C)c5)ccc4cn3)ccn2)CC1
2. COc1ccc([C@@H](O)c2cc(-c3ncnc4cc(N5CCOCC5)ccc34)c(F)cc2Cl)nn1 + CN1CCN(c2cc(C(=O)Nc3cc4cc(-c5cnn(C)c5)ccc4cn3)ccn2)CC1
3. Nc1ccccc1NC(=O)c1ccc(CNC(=O)OCc2cccnc2)cc1 + CN1CCN(c2cc(C(=O)Nc3cc4cc(-c5cnn(C)c5)ccc4cn3)ccn2)CC1

1: 1.51%; 2: 1.12%; 3: 1.46%
